Data origin: patent US20250064789A1

I'd appreciate it if you could supply AUC(0-inf) values for the items below.
test: in vivo; details: male, Sprague-Dawley, rat, po, 10 mg/kg
One number for each entry, in ng·h/mL.

Recorded AUC(0-inf), per entry:
O=C(NCc1ccccn1)C(=O)[C@@H](Cc1ccccc1)NC(=O)[C@H]1COCCN1C(=O)[C@H](NC(=O)c1cnccn1)C1CCCCC1 [Compound 290] :: 3120
C[C@@H](NC(=O)[C@@H]1C[C@@H]2[C@H](C1)C2(F)F)C(=O)N[C@H](Cc1ccccc1)C(=O)C(=O)NCc1ccccn1 [Compound 126] :: 5270

--- query ---
Returns the measured AUC(0-inf) for the input compound. Input: O=C(NCc1ccccn1)C(=O)[C@@H](Cc1ccccc1)NC(=O)[C@H]1COCCN1C(=O)C1CCC(F)(F)CC1 [Compound 288] 3500

---

Please provide measured Cmax for the entries that follow.
assay: In vivo pharmacokinetic properties in rats; details: SD rats, p.o. 10 mg/kg
Please give the number followed by its unit.

Worked cases, Cmax given:
C[C@@H](NC(=O)C1CCC(F)(F)C1)C(=O)N[C@H](Cc1ccccc1)C(=O)C(=O)NCc1nccs1 (some centres unmarked) :: 634.54 ± 161.39 ng/mL
C[C@@H](NC(=O)CC1CC(F)(F)C1)C(=O)N[C@H](Cc1ccccc1)C(=O)C(=O)NCc1nccs1 :: 734.80 ± 101.62 ng/mL

Please state Cmax for every compound in the list that follows.
1. C[C@@H](NC(=O)C1CCC(F)(F)CC1)C(=O)N[C@H](Cc1ccccc1)C(=O)C(=O)NCc1nccs1
2. COC[C@@H](NC(=O)C1CCC(F)(F)CC1)C(=O)N[C@H](Cc1ccccc1)C(=O)C(=O)NCc1nccs1

["306.27 ± 32.12 ng/mL", "1006.49 ± 114.61 ng/mL"]

Please look up its Cmax: COC[C@@H](NC(=O)CC1CC(F)(F)C1)C(=O)N[C@H](Cc1ccccc1)C(=O)C(=O)NCc1nccs1 805.87 ± 75.43 ng/mL

---

test: in vivo; conditions: male, Sprague-Dawley, rat, po, 10 mg/kg
PARAMETER_MEASURED: AUC(0-inf)
Reply with the number, then its unit.

C[C@@H](NC(=O)N1CCC(F)(F)CC1)C(=O)N[C@H](Cc1ccccc1)C(=O)C(=O)NCc1ccccn1 [Compound 296] :: 5190 ng·h/mL
C[C@@H](NC(=O)C1CCC(F)(F)CC1)C(=O)N[C@H](Cc1ccccc1)C(=O)C(=O)NCc1ccccn1 [Compound 145] :: 3850 ng·h/mL
O=C(NCc1ccccn1)C(=O)[C@@H](Cc1ccccc1)NC(=O)[C@H]1COCCN1C(=O)CC1CCC(F)(F)CC1 [Compound 289] :: 3250 ng·h/mL

Would you mind telling me what AUC(0-inf) value was observed for O=C(CCC1CCC(F)(F)CC1)NCC(=O)N[C@H](Cc1ccccc1)C(=O)C(=O)NCc1ccccn1 [Compound 153] ? 26000 ng·h/mL

---

test system: BEAS-2B cells (normal human bronchial epithelial cells); experiment: Cytotoxic assay against human BEAS-2B cells (MTT, 72 h); type: cell-based
PARAMETER_MEASURED: CC50

COC[C@@H](NC(=O)CC1CC(F)(F)C1)C(=O)N[C@H](Cc1ccccc1)C(=O)C(=O)NCc1nccs1 :: > 500 µM

Provide CC50 for all items below, preserving their order.
1. C[C@@H](NC(=O)CC1CC(F)(F)C1)C(=O)N[C@H](Cc1ccccc1)C(=O)C(=O)NCc1nccs1
2. C[C@@H](NC(=O)C1CCC(F)(F)C1)C(=O)N[C@H](Cc1ccccc1)C(=O)C(=O)NCc1nccs1 (some centres unmarked)
3. COC[C@@H](NC(=O)C1CCC(F)(F)CC1)C(=O)N[C@H](Cc1ccccc1)C(=O)C(=O)NCc1nccs1
4. C[C@@H](NC(=O)C1CCC(F)(F)CC1)C(=O)N[C@H](Cc1ccccc1)C(=O)C(=O)NCc1nccs1

1: > 500 µM; 2: > 500 µM; 3: 159 µM; 4: > 500 µM

---

target: recombinant SARS-CoV-2 M^pro (Severe acute respiratory syndrome coronavirus 2 (2019-nCoV) (SARS-CoV-2), UniProt P0DTD1); experiment: Inhibition of SARS-CoV-2 M^pro enzyme activity (fluorescent substrate assay); assay type: biochemical; details: inhibition of SARS-CoV-2 M^pro enzyme activity; values in nM; read-out: IC50
PARAMETER_MEASURED: IC50 (nM)
One number for each entry, in nM.

N#Cc1cc(F)cc(N2CC(=O)N(CC(=O)N[C@H](Cc3ccccc3)C(=O)C(=O)NCc3nccs3)C2=O)c1 [Compound 518] :: 249

Could you tell me IC50 for each of these molecules? They are listed below.
1. O=C(NCc1nccs1)C(=O)[C@@H](Cc1ccccc1)NC(=O)C1(NC(=O)C2CCC(F)(F)CC2)CCC1 [Compound 539]
2. C[C@@H](OCc1ccccc1)C(=O)N[C@H](Cc1ccccc1)C(=O)C(=O)NCc1cnccn1 [Compound 27]
3. O=C(NCc1ccccn1)C(=O)[C@@H](Cc1ccccc1)NC(=O)C1(NC(=O)c2cc(OC(F)(F)F)ccc2F)CC1 [Compound 165]
4. CC(C)(C)OC(=O)NCC(C)(C)C(=O)N[C@H](Cc1ccccc1)C(=O)C(=O)NCc1ccccn1 [Compound 255]

1: 21.8; 2: 886; 3: 20.3; 4: 111

For each listed entry, give its IC50.
1. O=C(N[C@@H](C1CC1)C(F)(F)F)NC1(C(=O)N[C@H](Cc2ccccc2)C(=O)C(=O)NCc2ccccn2)CCC1 [Compound 306]
2. O=C(CN1C(=O)CN(c2cc(F)cc(F)c2)C1=O)N[C@H](Cc1ccccc1)C(=O)C(=O)NCc1nccs1 [Compound 523]

19.3
123

Required: IC50, one value per molecule below.
1. O=C(NCc1ccccn1)C(=O)[C@@H](Cc1ccccc1)NC(=O)C1(NC(=O)C2CCC(O)(C(F)(F)F)CC2)CCC1 (some centres unmarked) [Compound 205]
2. O=C(Cn1cc(-c2cc(F)cc(F)c2)cn1)N[C@H](Cc1ccccc1)C(=O)C(=O)NCc1nccs1 [Compound 502]
3. C[C@@H](NC(=O)CC1CC(F)(F)C1)C(=O)N[C@H](Cc1ccccc1)C(=O)C(=O)NCc1ccccn1 [Compound 134]

23.9
47
24.5

---

assay: in vivo; assay type: in vivo, beagle dogs; conditions: male, dog, in vivo, po; beagle dogs, p.o. 10 mg/kg
PARAMETER_MEASURED: Tmax (h)
Answers are plain numbers, in h.

Could you tell me which Tmax is on file for COC[C@@H](NC(=O)C1CCCC(F)(F)C1)C(=O)N[C@H](Cc1ccccc1)C(=O)C(=O)NCc1nccs1 (stereo partly shown) ? 1

---

target: recombinant SARS-CoV-2 M^pro (Severe acute respiratory syndrome coronavirus 2 (2019-nCoV) (SARS-CoV-2)); test: Inhibition of SARS-CoV-2 M^pro enzyme activity (fluorescent substrate assay); type: biochemical; settings: inhibition of SARS-CoV-2 M^pro enzyme activity; values given in μM; read-out: IC50
PARAMETER_MEASURED: IC50

Previously resolved entries follow.
C[C@@H](NC(=O)C1CCC(F)(F)CC1)C(=O)N[C@H](Cc1ccccc1)C(=O)C(=O)NCc1nc2ccccc2s1 :: > 2.5 µM
C[C@@H](OCc1ccccc1)C(=O)N[C@H](Cc1ccccc1)C(=O)C(=O)NCc1ncccc1Cl :: > 5 µM
O=C(NCc1ccccn1)C(=O)[C@@H](Cc1ccccc1)NC(=O)[C@@H]1CC2(CC2)CN1C(=O)C1CCC(F)(F)CC1 :: > 2.5 µM
O=C(NCc1ccccn1)C(=O)[C@@H](Cc1ccccc1)NC(=O)[C@@H]1[C@H]2CC[C@H](C2)N1C(=O)C1CCC(F)(F)CC1 :: > 2.5 µM
C[C@@H](OCc1ccccc1)C(=O)N[C@H](Cc1ccccc1)C(=O)C(=O)NCc1ncccn1 :: > 5 µM
Cc1cccc(CNC(=O)C(=O)[C@@H](Cc2ccccc2)NC(=O)[C@@H](C)OCc2ccccc2)n1 :: > 5 µM

Attention now shifts to the item below.
// IC50 lookup, key: COc1cccnc1CNC(=O)C(=O)[C@@H](Cc1ccccc1)NC(=O)[C@@H](C)OCc1ccccc1 > 5 µM

---

molecular target: recombinant SARS-CoV-2 M^pro (Severe acute respiratory syndrome coronavirus 2 (2019-nCoV) (SARS-CoV-2), UniProt P0DTD1); assay: Inhibition of SARS-CoV-2 M^pro enzyme activity (fluorescent substrate assay); format: biochemical; settings: inhibition of SARS-CoV-2 M^pro enzyme activity; values in nM; read-out: IC50
Labelling field: enter true (1) if recorded IC50 is less than 20 nM. Enter false (0) if it equals or exceeds that cut-off.

For this compound, is IC50 lower than 20 nM? C[C@@H](NC(=O)c1ccc(Cl)c(F)c1)C(=O)N[C@H](Cc1ccccc1)C(=O)C(=O)NCc1ccccn1 false (0)

is_below(IC50, 20 nM) for O=C(NCc1nccs1)C(=O)[C@@H](Cc1ccccc1)NC(=O)[C@H]1CC(F)(F)CN1C(=O)[C@@H]1C[C@@H]2[C@H](C1)C2(F)F ? false (0)
